Molecular target: human CMKLR1 (Homo sapiens)
Construct: host or cells: HEK293A (Invitrogen), stably expressing human Gα15
Assay: Ca2+ mobilization (CellLux imaging) agonist assay in HEK293A cells expressing CMKLR1 and Gα15
Type: cell-based
Conditions: Ca2+ mobilization, CMKLR1; decimal comma
Protocol: HEK293A cells (Invitrogen) expressing CMKLR1 and Gα15 were seeded at 5*10^4 cells/well in a poly-D-lysine coated 96-well black well/clear bottom plate (BD Falcon) and cultured overnight. From eighteen to twenty-four hours later, cells were loaded with FLUO4-AM (Invitrogen). […] Fluorescence data was generated in duplicate and experiments were repeated for at least three times. […] Signals were normalized to background fluorescence. […]
Square brackets hold non-standard residues; d marks the D form. Peptide text beside a SMILES is read from it.
Collected max response values appear next to each entry.

In the examples that follow, each entry is paired with its recorded max response.
C[C@H](NC(=O)[C@H](Cc1ccccc1)NC(=O)[C@@H](CCC(N)=O)NC(=O)CNC(=O)[C@H](Cc1ccccc1)NC(=O)[C@H](C)NC(=O)[C@@H](N)Cc1ccccc1)C(=O)N[C@@H](Cc1ccccc1)C(=O)N[C@H](CO)C(=O)O [compound 114] (H-FAFG[dQ]FAF[dS]-OH; N-terminus assumed) :: 1,24 DF/F0
NC(=O)CC[C@H](NC(=O)CNC(=O)[C@@H]1CCCN1C(=O)[C@H](Cc1ccccc1)NC(=O)[C@H](N)Cc1ccc(O)cc1)C(=O)N[C@@H](Cc1ccc(O)cc1)C(=O)N[C@H](Cc1c[nH]c2ccccc12)C(=O)N[C@@H](Cc1ccccc1)C(=O)N[C@H](Cc1ccccc1)C(=O)O [compound 133] (H-[dY]FPGQY[dW]F[dF]-OH; N-terminus assumed) :: 1,62 DF/F0

Tell me the measured max response of NC(=O)CC[C@H](NC(=O)CNC(=O)[C@@H]1CCCN1C(=O)[C@@H](Cc1ccc(O)cc1)NC(=O)[C@H](Cc1ccc(O)cc1)NC(=O)[C@H](CCC(N)=O)NC(=O)[C@H](N)Cc1ccccc1)C(=O)N[C@@H](Cc1ccc(O)cc1)C(=O)N[C@@H](Cc1ccc(O)cc1)C(=O)O [compound 137] (H-[dF]QY[dY]PGQYY-OH; N-terminus assumed) , please.
1,42 DF/F0

Tell me the measured max response of C[C@H](NC(=O)[C@H](Cc1ccc(O)cc1)NC(=O)[C@H](CCC(N)=O)NC(=O)CNC(=O)[C@H](Cc1ccccc1)NC(=O)[C@H](Cc1ccc(O)cc1)NC(=O)[C@H](N)CS)C(=O)N[C@@H](Cc1ccccc1)C(=O)N[C@H](CO)C(=O)O [compound 113] (H-[dC]YFGQYAF[dS]-OH; N-terminus assumed) , please.
1,56 DF/F0

Tell me the measured max response of CC(C)C[C@H](NC(=O)[C@@H](N)Cc1ccc(O)cc1)C(=O)N1CCC[C@H]1C(=O)N[C@@H](Cc1ccc(O)cc1)C(=O)N1CCC[C@H]1C(=O)N[C@@H](Cc1ccc(O)cc1)C(=O)N1CCC[C@@H]1C(=O)N[C@@H](Cc1ccccc1)C(=O)N[C@H](Cc1ccccc1)C(=O)O [compound 147] (H-YLPYPY[dP]F[dF]-OH; N-terminus assumed) , please.
1,36 DF/F0

Tell me the measured max response of CC(C)C[C@H](NC(=O)[C@H](Cc1ccccc1)NC(=O)[C@H](CCC(N)=O)NC(=O)CNC(=O)[C@H]1CCCN1C(=O)[C@@H](CC(C)C)NC(=O)[C@@H](N)Cc1ccc(O)cc1)C(=O)N[C@@H](Cc1ccccc1)C(=O)N[C@@H](CO)C(=O)O [compound 75] (H-Y[dL][dP]GQFLFS-OH; N-terminus assumed) , please.
0,99 DF/F0

====

Collected pEC50 values appear next to each entry.
Target: human CMKLR1 (Homo sapiens)
Construct: host or cells: HEK293A (Invitrogen), stably expressing human Gα15
Assay: Ca2+ mobilization (CellLux imaging) agonist assay in HEK293A cells expressing CMKLR1 and Gα15
Type: cell-based
Settings: Ca2+ mobilization, CMKLR1; decimal comma; NR where no EC50 is given; read-out: EC50
Square brackets hold non-standard residues; d marks the D form. Peptide text beside a SMILES is read from it.
Please note pEC50 is a logarithmic value: minus log10 of concentration in mol/L. Answer with that number alone.

CC(C)C[C@H](NC(=O)[C@H](N)Cc1ccc(O)cc1)C(=O)N1CCC[C@H]1C(=O)NCC(=O)N[C@H](Cc1c[nH]c2ccccc12)C(=O)N[C@@H](Cc1ccc(O)cc1)C(=O)N[C@@H](C)C(=O)N[C@@H](Cc1ccccc1)C(=O)N[C@H](Cc1ccccc1)C(=O)O [compound 142] (H-[dY]LPG[dW]YAF[dF]-OH; N-terminus assumed) :: 6.89

Test system human CMKLR1 (Homo sapiens); read-out pEC50; what value for CC(C)C[C@H](NC(=O)[C@@H](N)Cc1ccccc1)C(=O)N1CCC[C@H]1C(=O)NCC(=O)N[C@@H](CCC(N)=O)C(=O)NCC(=O)N[C@H](Cc1ccccc1)C(=O)N[C@@H](Cc1ccccc1)C(=O)N[C@@H](CO)C(=O)O [compound 61] (H-FLPGQG[dF]FS-OH; N-terminus assumed) ?
6.34

====

Target: human CMKLR1 (Homo sapiens)
Construct: host or cells: HEK293A (Invitrogen), stably expressing human Gα15
Sequence (Q99788 1-373): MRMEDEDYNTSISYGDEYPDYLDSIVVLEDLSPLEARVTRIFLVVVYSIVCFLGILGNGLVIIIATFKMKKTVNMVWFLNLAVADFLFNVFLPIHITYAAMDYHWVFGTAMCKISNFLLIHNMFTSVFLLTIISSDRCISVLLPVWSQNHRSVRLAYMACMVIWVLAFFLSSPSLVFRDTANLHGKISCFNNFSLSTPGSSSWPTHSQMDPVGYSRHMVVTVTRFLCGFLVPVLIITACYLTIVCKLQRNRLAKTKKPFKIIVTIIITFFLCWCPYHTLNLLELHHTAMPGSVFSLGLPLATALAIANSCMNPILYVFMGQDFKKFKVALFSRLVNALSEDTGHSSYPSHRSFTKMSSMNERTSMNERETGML
Assay: Ca2+ mobilization (CellLux imaging) agonist assay in HEK293A cells expressing CMKLR1 and Gα15
Format: cell-based
Conditions: Ca2+ mobilization, CMKLR1; decimal comma; NR where no EC50 is given; read-out: EC50
Square brackets hold non-standard residues; d marks the D form. Peptide text beside a SMILES is read from it.
Experimental Readout: pEC50
Please note pEC50 is a logarithmic value: minus log10 of concentration in mol/L. Answer with that number alone.

In the examples that follow, each entry is paired with its recorded pEC50.
CC(C)C[C@H](NC(=O)[C@H]1CCCN1C(=O)CNC(=O)[C@H](Cc1ccccc1)NC(=O)[C@H](CC(C)C)NC(=O)[C@@H](N)Cc1ccccc1)C(=O)N[C@@H](C)C(=O)N[C@@H](CC(C)C)C(=O)N1CCC[C@@H]1C(=O)O [compound 116] (H-FLFG[dP]LAL[dP]-OH; N-terminus assumed) :: 5.38
CC(C)C[C@H](NC(=O)[C@H](N)Cc1ccc(O)cc1)C(=O)N1CCC[C@H]1C(=O)NCC(=O)N[C@@H](CCC(N)=O)C(=O)N[C@@H](Cc1ccc(O)cc1)C(=O)N[C@@H](C)C(=O)N[C@@H](Cc1ccc(O)cc1)C(=O)N[C@@H](CO)C(=O)O [compound 101] (H-[dY]LPGQYAYS-OH; N-terminus assumed) :: 6.85
C[C@H](NC(=O)[C@H](Cc1ccc(O)cc1)NC(=O)[C@H](CCC(N)=O)NC(=O)CNC(=O)[C@@H]1CCCN1C(=O)[C@@H](Cc1ccc(O)cc1)NC(=O)[C@@H](N)Cc1ccc(O)cc1)C(=O)N[C@@H](Cc1ccccc1)C(=O)N[C@H](CO)C(=O)O [compound 88] (H-Y[dY]PGQYAF[dS]-OH; N-terminus assumed) :: 7.45
CC(C)[C@H](N)C(=O)N1CCC[C@H]1C(=O)NCC(=O)N[C@@H](CCC(N)=O)C(=O)N[C@@H](Cc1ccc(O)cc1)C(=O)N[C@@H](C)C(=O)N[C@@H](Cc1ccccc1)C(=O)N[C@H](CO)C(=O)N[C@H](CO)C(=O)O [compound 99] (H-VPGQYAF[dS][dS]-OH; N-terminus assumed) :: 6.89
CC(C)C[C@H](NC(=O)[C@@H]1CCCN1)C(=O)N[C@H](CCC(N)=O)C(=O)N[C@@H](Cc1ccc(O)cc1)C(=O)N1CCC[C@H]1C(=O)N[C@@H](Cc1ccc(O)cc1)C(=O)N[C@H](CS)C(=O)N[C@@H](CC(C)C)C(=O)N[C@H](Cc1ccccc1)C(=O)O [compound 149] (H-PL[dQ]YPY[dC]L[dF]-OH; N-terminus assumed) :: 6.57

Tell me the measured pEC50 of CC(C)C[C@H](NC(=O)[C@H](Cc1ccccc1)NC(=O)[C@H](CCC(N)=O)NC(=O)CNC(=O)[C@H]1CCCN1C(=O)[C@@H](CC(C)C)NC(=O)[C@@H](N)Cc1ccc(O)cc1)C(=O)N[C@@H](Cc1ccccc1)C(=O)N[C@@H](CO)C(=O)O [compound 75] (H-Y[dL][dP]GQFLFS-OH; N-terminus assumed) , please.
5.25

Tell me the measured pEC50 of CC(C)C[C@H](NC(=O)[C@H](N)Cc1ccccc1)C(=O)N1CCC[C@H]1C(=O)NCC(=O)N[C@@H](CCC(N)=O)C(=O)N[C@@H](Cc1ccc(O)cc1)C(=O)N[C@@H](C)C(=O)N[C@@H](Cc1ccccc1)C(=O)N[C@@H](Cc1ccccc1)C(=O)O [compound 55] (H-[dF]LPGQYAFF-OH; N-terminus assumed) , please.
7.03

Tell me the measured pEC50 of CC(C)C[C@H](NC(=O)CN)C(=O)N[C@@H](CCC(N)=O)C(=O)N[C@H](CCC(N)=O)C(=O)N[C@@H](Cc1ccccc1)C(=O)N[C@@H](Cc1ccc(O)cc1)C(=O)N[C@H](Cc1c[nH]c2ccccc12)C(=O)NCC(=O)N[C@H](Cc1ccccc1)C(=O)O [compound 132] (H-GLQ[dQ]FY[dW]G[dF]-OH; N-terminus assumed) , please.
7.25

Tell me the measured pEC50 of CC(C)C[C@H](NC(=O)[C@@H](Cc1ccccc1)NC(=O)[C@H]1CCCN1C(=O)[C@H](CC(C)C)NC(=O)[C@H](C)NC(=O)[C@H](Cc1ccc(O)cc1)NC(=O)[C@H]1CCCN1C(=O)[C@H](CC(C)C)NC(=O)[C@H](N)Cc1ccccc1)C(=O)O [compound 118] (H-[dF]L[dP]YAL[dP][dF]L-OH; N-terminus assumed) , please.
4.67

Tell me the measured pEC50 of CC(C)C[C@H](NC(=O)[C@@H](N)Cc1ccc(O)cc1)C(=O)N1CCC[C@H]1C(=O)NCC(=O)N[C@@H](CCC(N)=O)C(=O)N[C@@H](Cc1ccccc1)C(=O)N[C@H](Cc1ccccc1)C(=O)N[C@@H](Cc1ccccc1)C(=O)N[C@@H](CO)C(=O)O [compound 28] (H-YLPGQF[dF]FS-OH; N-terminus assumed) , please.
9.11

Tell me the measured pEC50 of CC(C)C[C@H](NC(=O)[C@@H](N)Cc1ccc(O)cc1)C(=O)N1CCC[C@H]1C(=O)NCC(=O)N[C@@H](CCC(N)=O)C(=O)N[C@@H](Cc1ccccc1)C(=O)N[C@@H](C)C(=O)N[C@H](Cc1ccccc1)C(=O)N[C@@H](Cc1ccccc1)C(=O)O [compound 42] (H-YLPGQFA[dF]F-OH; N-terminus assumed) , please.
8.05

Tell me the measured pEC50 of CC(C)C[C@@H](NC(=O)[C@H](Cc1c[nH]cn1)NC(=O)[C@@H](N)CO)C(=O)NCC(=O)N[C@@H](CCC(N)=O)C(=O)N[C@@H](Cc1ccccc1)C(=O)N[C@H](Cc1c[nH]c2ccccc12)C(=O)N[C@@H](Cc1ccccc1)C(=O)N[C@H](CO)C(=O)O [compound 139] (H-SH[dL]GQF[dW]F[dS]-OH; N-terminus assumed) , please.
6.98
